Data credit: patent EP4682166A1

# Study target: T1, human NMI (N-myc Interacting protein), recombinant protein (human, UniProt Q13287 1-307, limits assumed)
# T1 construct: Gene ID: 9111; also called hNMI; antigen
# T1 sequence (looked up): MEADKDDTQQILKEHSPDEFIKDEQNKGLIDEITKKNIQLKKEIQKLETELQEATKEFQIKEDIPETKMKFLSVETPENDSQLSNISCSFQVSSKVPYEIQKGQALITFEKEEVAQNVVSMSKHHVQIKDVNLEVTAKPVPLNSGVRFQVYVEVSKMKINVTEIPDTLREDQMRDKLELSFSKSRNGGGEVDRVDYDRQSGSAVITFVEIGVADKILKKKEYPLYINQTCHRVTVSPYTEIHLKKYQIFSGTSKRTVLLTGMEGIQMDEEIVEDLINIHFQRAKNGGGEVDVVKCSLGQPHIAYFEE
# Test details: sandwich ELISA; detection 94C4-1-biotin 1µg/mL; hNMI 48.828 pg/mL
Recorded OD450 for the following binders
Quick note: give the figure in OD450, leave out the unit.

See these solved cases before continuing.
INSERT INTO assay_data (binder, assay_readout, test_result) VALUES
  ('monoclonal antibody 39B4 (antibody, V domains shown, Rabbit monoclonal antibody; also called 39B4-1) VH: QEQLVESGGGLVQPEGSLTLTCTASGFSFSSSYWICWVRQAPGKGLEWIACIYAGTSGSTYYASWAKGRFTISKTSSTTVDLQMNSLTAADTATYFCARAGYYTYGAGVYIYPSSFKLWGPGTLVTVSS VL: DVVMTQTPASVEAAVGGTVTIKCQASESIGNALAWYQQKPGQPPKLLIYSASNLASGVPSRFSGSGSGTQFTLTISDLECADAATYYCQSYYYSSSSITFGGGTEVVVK', 'OD450', 0.145),
  ('monoclonal antibody 98G10 (antibody, V domains shown, Rabbit monoclonal antibody) VH: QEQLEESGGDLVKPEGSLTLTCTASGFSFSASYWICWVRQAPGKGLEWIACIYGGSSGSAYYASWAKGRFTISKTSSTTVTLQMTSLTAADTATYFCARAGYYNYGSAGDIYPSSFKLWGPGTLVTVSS VL: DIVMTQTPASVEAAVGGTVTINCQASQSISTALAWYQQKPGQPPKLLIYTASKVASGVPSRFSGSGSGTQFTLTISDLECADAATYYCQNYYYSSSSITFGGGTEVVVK', 'OD450', 0.134),
  ('monoclonal antibody 240B10-1 (antibody, V domains shown, Rabbit monoclonal antibody) VH: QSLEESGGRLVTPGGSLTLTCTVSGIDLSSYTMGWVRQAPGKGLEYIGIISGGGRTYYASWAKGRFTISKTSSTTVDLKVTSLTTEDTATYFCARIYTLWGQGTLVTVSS VL: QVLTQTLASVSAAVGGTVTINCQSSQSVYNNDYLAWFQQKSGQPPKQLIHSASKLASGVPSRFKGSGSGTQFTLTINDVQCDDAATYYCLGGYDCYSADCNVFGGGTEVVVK', 'OD450', 0.167);

Form: binder = monoclonal antibody B-8 (antibody, V domains shown, Rabbit monoclonal antibody; also called B8-1) VH: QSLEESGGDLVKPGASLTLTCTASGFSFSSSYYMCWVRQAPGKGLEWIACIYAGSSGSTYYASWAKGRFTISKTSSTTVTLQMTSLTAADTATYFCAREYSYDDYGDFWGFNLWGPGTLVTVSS VL: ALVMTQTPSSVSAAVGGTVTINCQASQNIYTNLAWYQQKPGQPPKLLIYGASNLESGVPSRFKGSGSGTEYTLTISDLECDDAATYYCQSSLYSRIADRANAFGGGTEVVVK ; OD450 = 0.139
